The reported measurements were obtained from patent US20090105293A1.

tested on: Human recombinant AMPK enzyme; test: AMPK screening assay, AlphaScreen technology; assay type: biochemical; conditions: 25 mM Tris/HCl buffer pH 7.5, 100 μM ATP, AMARAA peptide substrate, 30 min room temperature, activator concentration not given
List of α-Screen: AMPK activity expressed in % of control (basal activity) values.
OBSERVABLE: α-Screen: AMPK activity expressed in % of control (basal activity)

COMPOUND: O=c1[nH]c2sc(Cl)c(C3CC3)c2c(O)c1-c1cccc(Oc2ccccc2)c1
SYSTEM_NAME: Human recombinant AMPK enzyme
MEAS_VALUE: 166 % of control
//
COMPOUND: CC(C)c1csc2[nH]c(=O)c(-c3ccccc3)c(O)c12
SYSTEM_NAME: Human recombinant AMPK enzyme
MEAS_VALUE: 131 % of control
//
COMPOUND: Cc1sc2[nH]c(=O)c(-c3ccccc3)c(O)c2c1C
SYSTEM_NAME: Human recombinant AMPK enzyme
MEAS_VALUE: 154 % of control
//
COMPOUND: Cc1c(Br)sc2[nH]c(=O)c(-c3ccccc3)c(O)c12
SYSTEM_NAME: Human recombinant AMPK enzyme
MEAS_VALUE: 322 % of control
//
COMPOUND: CCC(C)c1csc2[nH]c(=O)c(-c3ccccc3)c(O)c12 (centres unmarked)
SYSTEM_NAME: Human recombinant AMPK enzyme
MEAS_VALUE: 156 % of control
//
COMPOUND: CC(C)c1c(Cl)sc2[nH]c(=O)c(-c3ccccc3)c(O)c12
SYSTEM_NAME: Human recombinant AMPK enzyme
MEAS_VALUE: 181 % of control
//
COMPOUND: CCc1cc2c(O)c(-c3ccccc3)c(=O)[nH]c2s1
SYSTEM_NAME: Human recombinant AMPK enzyme
MEAS_VALUE: 150 % of control
//
COMPOUND: CCC(C)c1c(Cl)sc2[nH]c(=O)c(-c3ccccc3)c(O)c12 (centres unmarked)
SYSTEM_NAME: Human recombinant AMPK enzyme
MEAS_VALUE: 269 % of control
//
COMPOUND: O=c1[nH]c2scc(C3CC3)c2c(O)c1-c1ccccc1
SYSTEM_NAME: Human recombinant AMPK enzyme
MEAS_VALUE: 154 % of control
//
COMPOUND: O=c1[nH]c2sc(Br)cc2c(O)c1-c1ccccc1
SYSTEM_NAME: Human recombinant AMPK enzyme
MEAS_VALUE: 286 % of control
//
COMPOUND: O=c1[nH]c2sc3c(c2c(O)c1-c1ccccc1)CCCC3
SYSTEM_NAME: Human recombinant AMPK enzyme
MEAS_VALUE: 176 % of control

====

system: Human recombinant AMPK enzyme; assay: AMPK screening assay, Delfia technology; format: biochemical; settings: 50 mM Hepes buffer pH 7.4, 125 μM ATP, AMARAA peptide substrate, 30 min room temperature, activator concentration not given
OBSERVABLE: Delfia: AMPK activity expressed in % of control (basal activity)

COMPOUND_STRUCTURE: O=c1[nH]c2sc3c(c2c(O)c1-c1ccccc1)CCCC3
MEAS_VALUE: 286 % of control
//
COMPOUND_STRUCTURE: O=c1[nH]c2sc(Cl)c(C3CC3)c2c(O)c1-c1cccc(Oc2ccccc2)c1
MEAS_VALUE: 151 % of control
//
COMPOUND_STRUCTURE: CC(C)c1c(Cl)sc2[nH]c(=O)c(-c3ccccc3)c(O)c12
MEAS_VALUE: 233 % of control
//
COMPOUND_STRUCTURE: O=c1[nH]c2sc(Br)cc2c(O)c1-c1ccccc1
MEAS_VALUE: 271 % of control
//
COMPOUND_STRUCTURE: Cc1c(Br)sc2[nH]c(=O)c(-c3ccccc3)c(O)c12
MEAS_VALUE: 313 % of control

====

test system: Human recombinant AMPK enzyme; test: AMPK screening assay, Delfia technology; format: biochemical; conditions: 50 mM Hepes buffer pH 7.4, 125 μM ATP, AMARAA peptide substrate, 30 min room temperature, activator concentration not given
List of Delfia: AMPK activity expressed in % of control (basal activity) values.
OBSERVABLE: Delfia: AMPK activity expressed in % of control (basal activity)

COMPOUND: CCC(C)c1csc2[nH]c(=O)c(-c3ccccc3)c(O)c12 (stereo not drawn)
MEAS_VALUE: 201 % of control
//
COMPOUND: Cc1sc2[nH]c(=O)c(-c3ccccc3)c(O)c2c1C
MEAS_VALUE: 232 % of control
//
COMPOUND: O=c1[nH]c2scc(C3CC3)c2c(O)c1-c1ccccc1
MEAS_VALUE: 163 % of control
//
COMPOUND: CCC(C)c1c(Cl)sc2[nH]c(=O)c(-c3ccccc3)c(O)c12 (stereo not drawn)
MEAS_VALUE: 164 % of control
//
COMPOUND: CC(C)c1csc2[nH]c(=O)c(-c3ccccc3)c(O)c12
MEAS_VALUE: 169 % of control
//
COMPOUND: CCc1cc2c(O)c(-c3ccccc3)c(=O)[nH]c2s1
MEAS_VALUE: 219 % of control
